Numbers sourced from ChEMBL document CHEMBL1201862.

System: NCI-H23
assay-explanation: NCI tumour cell line growth inhibition, 48 h
Activity calls are given as the source filed them. No stated cut-off is given here; in the data, active = GI50 up to about 1.1 µM and inactive = higher.
Write down the outcome that applies. Available outcomes: class 1 for active, class 0 for inactive

Answered examples (2):
- COc1ccc(C)cc1Nc1nnc(-c2ccccc2N)s1: class 0
- Cc1cc2c(cc1Cl)Sc1nnc(Nc3ccccc3)n1S2(=O)=O: class 0

Each compound tested received a call. Report the one for CCOC(=O)[C@H]1Nc2ccc(O)cc2C2c3ccccc3CC21 (stereo not given in full) . class 0

Each compound tested received a call. Report the one for Cc1ccc(S(=O)(=O)NNC2(NS(=O)(=O)c3ccc(Cl)cc3)C(Cl)=C(Cl)C(=O)c3ccccc32)cc1 (stereo not given) . class 0

====

Tested on: ACHN
assay-explanation: NCI tumour cell line growth inhibition, 48 h
Activity calls are given as the source filed them. Rule as the data show it: active = GI50 up to about 1.1 µM and inactive = higher.
Write down the outcome that applies. Available outcomes: active, inactive

Answered examples (5):
- O=S(=O)(c1ccc(I)cc1)N(c1ccccc1)S(=O)(=O)C(F)(F)C(F)(F)C(F)(F)C(F)(F)F: inactive
- CCOC(=O)c1nc2cc(F)c(N3CCOCC3)cc2[nH]c1=O: inactive
- COc1ccc(/C=c2/sc3n(c2=O)C(c2ccccc2)C2(O)CCCCC2N=3)cc1 (centres undefined): inactive
- COc1ccc(C[C@@H]2Cc3cc(OC)c(OC)cc3CN2C)cc1: inactive
- O=C1CN(c2cccc(C(F)(F)F)c2)C(=O)CN1NCNN1CC(=O)N(c2cccc(C(F)(F)F)c2)CC1=O: inactive

Each molecule tested received a call. Report the one for COP(=O)(OC)C(O)CC(C)C (centres undefined) . inactive

Each molecule tested received a call. Report the one for COc1c(OC2OC(CO)C(O)C(O)C2O)cc2c(c1OC)-c1ccc(OC)c(=O)cc1[C@@H](NC(C)=O)CC2 (some centres undefined) . inactive

Each molecule tested received a call. Report the one for S=C(N1CCN(c2ccc(Cl)c(Cl)c2)CC1)N1CCN(c2ccc(Cl)c(Cl)c2)CC1 . inactive

Each molecule tested received a call. Report the one for C#CC1(O)C(COP(=O)(O)OCC2OC(n3ccc(NCCCCCCCCCCCCCCCCCC)nc3=O)C(O)C2O)OC(n2ccc(N)nc2=O)C1O (centres undefined) . active

====

System: HCT-116
assay-explanation: NCI tumour cell line growth inhibition, 48 h
The source made the active and inactive calls. Rule as the data show it: active = GI50 up to about 1.1 µM and inactive = higher.
Write down the outcome that applies. Available outcomes: 1 = active, -1 = inactive

* OCc1c[te]c(-c2ccccc2)c1 | -1
* COc1ccc(-c2nc3c(nc2-c2ccc(OC)cc2)N(C)S(=O)(=O)N=C3N)cc1 | -1
* O=c1c(Cc2ccc(Cl)cc2)nnc2sc(-c3ccc(-c4ccc(F)c(Cl)c4)o3)nn12 | -1
* C[n+]1cccc2ccc(OC(=O)c3ccccc3)cc21 | -1
* O=C1NCC2(CCN(CC3COc4ccccc4O3)CC2)N1c1ccccc1 (stereo not given) | -1

Then this molecule:
Each molecule tested received a call. Report the one for CCCCCC/C(CC(=O)CCC(=O)NCCc1ccccc1)=N\Nc1ccc([N+](=O)[O-])cc1[N+](=O)[O-] . -1

====

Test system: T47D
assay-explanation: NCI tumour cell line growth inhibition, 48 h
The source made the active and inactive calls. Rule as the data show it: active = GI50 up to about 1.1 µM and inactive = higher.
Write down the outcome that applies. Available outcomes: active, inactive

Answered examples (2):
• CC(=O)Oc1ccc2oc(=O)cc(C)c2c1 = inactive
• C#C/C=C\CCCCCCCCCCCCCC/C=C\CCCCC#CC(O)C#CCCCC/C=C\CCCCCC/C=C/C(O)C#C (stereo not given) = inactive

Each compound tested received a call. Report the one for NC(Cc1ccccc1)C(=O)NC(Cc1ccccc1)NC(=O)C(Cc1c[nH]c2ccccc12)C(=O)O (stereo not given) . inactive

Each compound tested received a call. Report the one for Cc1cccc2c1CC(C1OC(=O)c3c(C)cccc31)C2=O (stereo not given) . inactive

====

Test system: SF-295
assay-explanation: NCI tumour cell line growth inhibition, 48 h
The source made the active and inactive calls. Cut-off read from the data, not from the text of the source: active = GI50 up to about 1.1 µM and inactive = higher.
recorded-metric: GI50

• O=C1OC(c2ccc(O)c(Cl)c2)(c2ccc(O)c(Cl)c2)c2ccc(Br)c3cccc1c23.O=C1OC(c2ccc(O)c(Cl)c2)(c2ccc(O)c(Cl)c2)c2cccc3c(Br)ccc1c23 = 18.3 µM (inactive)

Okay, here is my list. What is GI50 for each of these?
1. N#CCC1(c2ccc(Cl)cc2)NC(=O)c2ccccc21 (centres undefined)
2. CN(C)Cc1c(O)ccc2c1c1c(n2C)C(=O)c2ccccc2C1=O
3. CCCCCC/C(CC(=O)CCC(=O)NCCc1ccccc1)=N\Nc1ccc([N+](=O)[O-])cc1[N+](=O)[O-]

["> 100 µM (inactive)", "6.17 µM (inactive)", "> 100 µM (inactive)"]

====

Test system: M14
assay-explanation: NCI tumour cell line growth inhibition, 48 h
The source made the active and inactive calls. No stated cut-off is given here; in the data, active = GI50 up to about 1.1 µM and inactive = higher.
Field: GI50. Provide a value for each of the molecules that follow.

Okay, here is my list. What is GI50 for each of these?
1. COC(=O)C(C(=O)C(=O)Nc1ccc(C(F)(F)F)cc1[N+](=O)[O-])c1csc(-n2nc(-c3ccccc3)cc2-c2ccccc2)n1 (stereo not drawn)
2. O=C1CN(c2ccccc2)C(=O)CN1NCNN1CC(=O)N(c2ccccc2)CC1=O
3. C#C/C=C\CCCCCCCCCCCCCC/C=C\CCCCC#CC(O)C#CCCCC/C=C\CCCCCC/C=C/C(O)C#C (stereo not drawn)
4. O=C1/C(=C/C=C/c2ccccc2)N=C(c2ccccc2)N1c1ccc(S(=O)(=O)Nc2nccs2)cc1
5. O=C1Nc2ccccc2/C1=N/Nc1nc(-c2ccc([N+](=O)[O-])cc2)cs1

> 100 µM (inactive)
> 100 µM (inactive)
12.9 µM (inactive)
26.4 µM (inactive)
15 µM (inactive)

Okay, here is my list. What is GI50 for each of these?
1. CC(C)(Oc1ccc(-c2cccc3ccccc23)cc1)C(=O)O
2. c1ccc2c(NCCCCCCCCNc3cccc4ccccc34)cccc2c1

1: > 100 µM (inactive); 2: 19.9 µM (inactive)

====

Test system: COLO 205
assay-explanation: NCI tumour cell line growth inhibition, 48 h
Activity calls are given as the source filed them. Rule as the data show it: active = GI50 up to about 1.1 µM and inactive = higher.
Write down the outcome that applies. Available outcomes: active, inactive

- O=c1oc2ccccc2cc1-c1cn2c(n1)sc1ccccc12: inactive
- COc1cc(/C=C2\C(=O)N(c3ccccc3)C(c3ccccc3)S2(=O)=O)cc(OC)c1OC (configuration not stated): inactive
- CC(/C(=N/NC(=O)C(N)=O)c1c(Cl)ccc(Cl)c1O)C1(O)C(=O)Nc2ccccc21 (configuration not stated): inactive

Each compound tested received a call. Report the one for N#CC1CC2(C(=O)C1=O)c1ccccc1-c1ccccc12 (configuration not stated) . inactive

Each compound tested received a call. Report the one for COc1ccc(C2OC(c3ccncc3)=NN2C)cc1OC (configuration not stated) . inactive

Each compound tested received a call. Report the one for Clc1ncnc(Cl)c1Cl . inactive

Each compound tested received a call. Report the one for CCC1=[N+](CC)CCN1CC . inactive

Each compound tested received a call. Report the one for Cc1ccc(-n2nnc3c(NNc4ccccc4)n[nH]c(=O)c32)cc1 . inactive

Each compound tested received a call. Report the one for COC1(C)C(=O)N2C1N(C(=O)OC(C)(C)C)CC2(C)C (configuration not stated) . inactive

Each compound tested received a call. Report the one for Cn1c2ccccc2c(=O)c2c(O)cc3c(c21)CC(C1(C)CO1)O3 (configuration not stated) . inactive

Each compound tested received a call. Report the one for CCc1c2c([nH]c(=S)c1C#N)CCC2 . inactive

Each compound tested received a call. Report the one for CCOC(=O)C(C)c1nc2cc3cccnc3c(Cl)c2[nH]c1=O (configuration not stated) . inactive

====

Test system: CCRF-CEM
assay-explanation: NCI tumour cell line growth inhibition, 48 h
Activity calls are given as the source filed them. Rule as the data show it: active = GI50 up to about 1.1 µM and inactive = higher.
Write down the outcome that applies. Available outcomes: T = active, F = inactive

* CCCCCCCCCCCCCCCCCCOCC(CCP(=O)(CP(=O)(O)O)Oc1ccccc1)OCCCCCCCCCCCCCCCCCC (centres undefined) | F
* O=NN(CC1(O)OCC(O)C(O)C1O)C(Cc1c[nH]c2ccccc12)C(=O)O (centres undefined) | F
* NN/C(=N\S(=O)(=O)c1cc(Cl)c(Oc2ccc([N+](=O)[O-])cc2Cl)c(Cl)c1)Nc1ccc(Cl)cc1 | F

Each compound tested received a call. Report the one for Clc1ccc(C2ON=C(c3ccccc3)N2C23CC4CC(CC(C4)C2)C3)c(Cl)c1 (centres undefined) . F

Each compound tested received a call. Report the one for Cc1nc(C)c(N2CCN([N+](=O)[O-])CC2)c(O)n1 . F

====

System: HOP-18
assay-explanation: NCI tumour cell line growth inhibition, 48 h
Activity calls are given as the source filed them. No stated cut-off is given here; in the data, active = GI50 up to about 1.1 µM and inactive = higher.
Write down the outcome that applies. Available outcomes: active, inactive

Answered examples (8):
- COc1ccc(Nc2nc3c(N)cc(C(F)(F)F)cc3nc2-c2ccccc2)cc1: inactive
- COC1(C)C(=O)N2C1N(C(=O)OC(C)(C)C)CC2(C)C (centres undefined): inactive
- COc1c(C(=O)c2ccc([N+](=O)[O-])cc2)cc(C(C)(C)C)cc1C(C)(C)C: inactive
- COC(=O)CCC(=O)CC(=O)C(=O)Nc1c(Cl)cc([N+](=O)[O-])cc1Cl: inactive
- NC1=NCC(c2ccccn2)C1c1ccc(F)cc1 (centres undefined): inactive
- CO[C@H](C(=O)[C@@H](O)[C@@H](C)O)[C@@H]1Cc2cc3cc(OC4CC(OC5CC(O)C(O)C(C)O5)C(O)C(C)O4)c(C)c(O)c3c(O)c2C(=O)[C@H]1OC1CC(OC2CC(OC3CC(C)(O)C(O)C(C)O3)C(O)C(C)O2)C(O)C(C)O1 (some centres undefined): active
- CC1(C)OCC(CO)(Nc2nc(N3CC3)nc(N3CC3)n2)CO1: inactive
- C[Si](C)(c1ccccc1)C1CC(=O)CC(=O)C1: inactive

Then this molecule:
Each molecule tested received a call. Report the one for CCOC(=O)[C@H]1Nc2ccc(O)cc2C2c3ccccc3CC21 (some centres undefined) . inactive
